# testedOn: IRAK4 (Homo sapiens, UniProt Q9NWZ3)
# Sequence (Q9NWZ3 1-460): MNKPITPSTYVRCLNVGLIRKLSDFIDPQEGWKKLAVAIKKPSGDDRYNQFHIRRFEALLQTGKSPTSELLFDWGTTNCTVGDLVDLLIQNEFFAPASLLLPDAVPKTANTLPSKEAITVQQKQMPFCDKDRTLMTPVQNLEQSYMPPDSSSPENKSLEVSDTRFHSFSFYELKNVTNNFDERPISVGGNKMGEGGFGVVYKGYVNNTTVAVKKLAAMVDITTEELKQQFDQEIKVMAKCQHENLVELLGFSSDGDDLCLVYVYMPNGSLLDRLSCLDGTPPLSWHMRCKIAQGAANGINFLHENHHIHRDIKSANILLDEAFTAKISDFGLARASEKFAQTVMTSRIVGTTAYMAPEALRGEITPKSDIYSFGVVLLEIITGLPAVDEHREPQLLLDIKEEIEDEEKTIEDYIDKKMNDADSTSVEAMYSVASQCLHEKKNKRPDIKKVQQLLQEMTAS
# protocolSummary: Degradation of IRAK4 in THP1 cells, Western blot
# Format: cell-based
# Set-up: Degradation of IRAK4 in THP1 by compound; host or cells: THP-1
# measurementSetup: maximum degradation rate, THP-1 cells, 24 hours of incubation; read-out: Dmax
Where a name gives a salt, the structure may show the parent alone.
reportedProperty: Dmax

| molecule | recordedValue |
| --- | --- |
| NC(=O)c1cn(-c2ccc(N3CCN(CC4CCN(c5ccc(NC6CCC(=O)NC6=O)cc5F)CC4)CC3)cc2)cc1NC(=O)c1cccc(C(F)(F)F)n1 (stereo not drawn) [Compound A427] | > 60% |
| COc1cc(NC2CCC(=O)NC2=O)ccc1N1CCC(N2CCN(c3ccc(-n4cc(NC(=O)c5cccc(C(F)(F)F)n5)c(C(N)=O)n4)cc3)CC2)CC1 (stereo not drawn) [Compound A425] | > 60% |
| Cn1c(-c2ccc(N3CCC(CN4CCN(c5ccc(-n6cc(NC(=O)c7cccc(C(F)(F)F)n7)c(C(N)=O)n6)cc5)CC4)CC3)cc2)nn(C2CCC(=O)NC2=O)c1=O (stereo not drawn) [Compound A189] | > 60% |
| NC(=O)c1nn(-c2ccc(N3CCN(CC4CCN(c5cccc(NC6CCC(=O)NC6=O)c5)CC4)CC3)cc2)cc1NC(=O)c1cccc(C(F)(F)F)n1 (stereo not drawn) [Compound A197] | > 60% |
| NC(=O)c1nn(C23CC(N4CCN(C5CCN(c6ccc(NC7CCC(=O)NC7=O)cc6F)CC5)CC4)(C2)C3)cc1NC(=O)c1cccc(C(F)(F)F)n1 (stereo not drawn) [Compound A451] | > 60% |
| COc1cc(NC2CCC(=O)NC2=O)ccc1N1CCC(CN2CCN(c3ccc(-n4cc(NC(=O)c5cccc(C(F)(F)F)n5)c(C(N)=O)n4)cc3)CC2)CC1 (stereo not drawn) [Compound A423] | > 60% |
| NS(=O)(=O)c1nn(-c2ccc(N3CCN(CC4CCN(c5ccc(NC6CCC(=O)NC6=O)cc5F)CC4)CC3)cc2)cc1NC(=O)c1cccc(-c2ccn[nH]2)n1 (stereo not drawn) [Compound A325] | > 60% |
| Cn1c(=O)n(C2CCC(=O)NC2=O)c2cccc(N3CCC4(CC3)CN(Cc3ccc(-n5cc(NC(=O)c6cccc(C(F)(F)F)n6)c(C(N)=O)n5)cc3)C4)c21 (stereo not drawn) [Compound A319] | 40 to 60% |
| CN(CCN1CC2CN(c3cccc4c3n(C)c(=O)n4C3CCC(=O)NC3=O)CC2C1)Cc1ccc(-n2cc(NC(=O)c3cccc(-c4ccn[nH]4)n3)c(S(N)(=O)=O)n2)cc1 (stereo not drawn) [Compound A337] | > 60% |
| NC(=O)c1nn(-c2ccc(N3CCN(CCC4CCN(C(=O)c5ccc(F)c(N6CCC(=O)NC6=O)c5)CC4)CC3)cc2)cc1NC(=O)c1cccc(C(F)(F)F)n1 [Compound A402, trifluoroacetate] | > 60% |
| NC(=O)c1cn(-c2ccc(N3CCN(C4CCN(c5ccc(NC6CCC(=O)NC6=O)cc5F)CC4)CC3)cc2)cc1NC(=O)c1cccc(C(F)(F)F)n1 (stereo not drawn) [Compound A428] | > 60% |
| Cn1c(=O)n(C2CCC(=O)NC2=O)c2ccc(N3CCC(CN4CCN(c5ccc(-n6cc(NC(=O)c7cccc(-c8ccn[nH]8)n7)c(S(N)(=O)=O)n6)cc5)CC4)CC3)cc21 (stereo not drawn) [Compound A326] | > 60% |
| Cn1c(=O)n(C2CCC(=O)NC2=O)c2cccc(NCCN3CCN(C(=O)c4ccc(-n5cc(NC(=O)c6cccc(-c7ccn[nH]7)n6)c(S(N)(=O)=O)n5)cc4)CC3)c21 (stereo not drawn) [Compound A356] | > 60% |
| NC(=O)c1nn(-c2ccc(N3CCN(C(=O)N4CCC(c5ccc(OC6CCC(=O)NC6=O)cc5F)CC4)CC3)cc2)cc1NC(=O)c1cccc(C(F)(F)F)n1 (stereo not drawn) [Compound A355] | > 60% |
| CN(c1ccc(N2CCC(CN3CCN(c4ccc(-n5cc(NC(=O)c6cccc(C(F)(F)F)n6)c(C(N)=O)n5)cc4)CC3)CC2)c(F)c1)C1CCC(=O)NC1=O (stereo not drawn) [Compound A447, formate] | > 60% |
| Cn1c(=O)n(C2CCC(=O)NC2=O)c2cccc(NCC3CC4(C3)CN(C(=O)c3ccc(-n5cc(NC(=O)c6cccc(-c7ccn[nH]7)n6)c(S(N)(=O)=O)n5)cc3)C4)c21 (stereo not drawn) [Compound A354] | > 60% |
| Cn1c(=O)n(C2CCC(=O)NC2=O)c2cccc(C#CCOC3CCN(Cc4ccc(-n5cc(NC(=O)c6cccc(-c7ccn[nH]7)n6)c(S(N)(=O)=O)n5)cc4)CC3)c21 (stereo not drawn) [Compound A340] | > 60% |
| NC(=O)c1nn(-c2ccc(N3CCN(CC4CCN(c5ccc(NC6CCC(=O)NC6=O)cn5)CC4)CC3)cc2)cc1NC(=O)c1cccc(C(F)(F)F)n1 (stereo not drawn) [Compound A396] | > 60% |
| Cn1c(-c2ccc(N3CCC(CCN4CCN(c5ccc(-n6cc(NC(=O)c7cccc(C(F)(F)F)n7)c(C(N)=O)n6)cc5)CC4)C3)cc2)nn(C2CCC(=O)NC2=O)c1=O (stereo not drawn) [Compound A185] | 40 to 60% |
| NC(=O)c1nn(-c2ccc(N3CCN(CCC4CCN(c5cccc(NC6CCC(=O)NC6=O)c5)CC4)CC3)cc2)cc1NC(=O)c1cccc(C(F)(F)F)n1 (stereo not drawn) [Compound A196] | > 60% |
| NC(=O)c1nn(-c2ccc(CN3CCC4(CC3)CN(c3ccc5c(c3)C(=O)N(C3CCC(=O)NC3=O)C5=O)C4)cc2)cc1NC(=O)c1cccc(C(F)(F)F)n1 (stereo not drawn) [Compound A224] | > 60% |

----------
# protocolSummary: Pharmacokinetic detection in rats after intravenous injection and oral administration
# Assay type: in vivo, Sprague-Dawley (SD) rats
# measurementSetup: in vivo; rat, oral administration, 5 mg/kg
reportedProperty: half-life (h)

| compound | unitOfMeasure | recordedValue |
| --- | --- | --- |
| NC(=O)c1nn(-c2ccc(N3CCN(CC4CCN(c5ccc6c(c5)CN(C5CCC(=O)NC5=O)C6=O)CC4(F)F)CC3)cc2)cc1NC(=O)c1cccc(C(F)(F)F)n1 (centres unmarked) | h | 7 |
| Cn1c(=O)n(C2CCC(=O)NC2=O)c2ccc(N3CCC(CN4CCN(c5ccc(-n6cc(NC(=O)c7cccc(C(F)(F)F)n7)c(C(N)=O)n6)cc5)CC4)CC3)cc21 (centres unmarked) | h | 8 |

----------
# testedOn: IRAK4 (Homo sapiens, UniProt Q9NWZ3)
# protocolSummary: Degradation of IRAK4 in THP1 cells, Western blot
# Type: cell-based
# Parameters: Degradation of IRAK4 in THP1 by compound; host or cells: THP-1
# measurementSetup: maximum degradation rate, THP-1 cells, 24 hours of incubation; read-out: Dmax
Counter-ions that a name gives are not always drawn.

| compound | Dmax |
| --- | --- |
| N#Cc1ccc(C(=O)Nc2cn(-c3ccc(N4CCN(CC5CCN(c6ccc(NC7CCC(=O)NC7=O)cc6F)CC5)CC4)cc3)nc2C(N)=O)nc1 (centres unmarked) | < 40% |
| NC(=O)c1nn(-c2ccc(N3CCN(C4CCN(c5ccc(NC6CCC(=O)NC6=O)cn5)CC4)CC3)cc2)cc1NC(=O)c1cccc(C(F)(F)F)n1 (centres unmarked) | 40 to 60% |
| N#Cc1ccnc(C(=O)Nc2cn(-c3ccc(N4CCN(C5CCN(c6ccc(NC7CCC(=O)NC7=O)cc6F)CC5)CC4)cc3)nc2C(N)=O)c1 (centres unmarked) | < 40% |
| Cn1c(=O)n(C2CCC(=O)NC2=O)c2cccc(NCCN3CC4(C3)CN(Cc3ccc(-n5cc(NC(=O)c6cccc(-c7ccn[nH]7)n6)c(S(N)(=O)=O)n5)cc3)C4)c21 (centres unmarked) | > 60% |
| COc1ccc(C(=O)N2CCC(CN3CCN(c4ccc(-n5cc(NC(=O)c6cccc(-c7ccn[nH]7)n6)c(S(N)(=O)=O)n5)cc4)CC3)C2)cc1N1CCC(=O)NC1=O (centres unmarked) [Compound A329, trifluoroacetate] | > 60% |
